target-entity: T1, human FCRL1 (NCBI accession number: NP_443170.1), transiently expressed on 293T cells (human, UniProt Q96LA6 17-429)
T1 construct: also called Fc receptor-like protein 1; CD307a
T1 sequence: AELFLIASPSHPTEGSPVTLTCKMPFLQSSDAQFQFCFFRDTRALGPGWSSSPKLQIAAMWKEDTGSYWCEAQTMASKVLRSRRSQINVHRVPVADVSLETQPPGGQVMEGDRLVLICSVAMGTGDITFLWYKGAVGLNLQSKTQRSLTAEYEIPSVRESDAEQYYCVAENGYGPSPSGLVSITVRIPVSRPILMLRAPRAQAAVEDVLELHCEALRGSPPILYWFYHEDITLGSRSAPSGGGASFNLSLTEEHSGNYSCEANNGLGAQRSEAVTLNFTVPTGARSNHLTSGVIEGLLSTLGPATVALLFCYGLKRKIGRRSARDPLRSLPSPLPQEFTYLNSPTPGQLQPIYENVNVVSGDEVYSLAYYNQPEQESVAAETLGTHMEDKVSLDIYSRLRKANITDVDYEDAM
assay-explanation: flow cytometry on 293T cells transiently expressing human FCRL1; apparent KD from EC50 of a 4-parameter fit
Below is a list of entries, each paired with its recorded Kd value.
I only need the number, in nM, no unit after it.

binder	Kd [nM]
anti-human FCRL1 mouse monoclonal antibody DK1164 (antibody, V domains shown) VH: QVQLQQSGTELVRPGTSVKVSCKASGYAFTNYLIEWVKQRPGQGLEWIGVINPGSGGTDYNKKFKGKAMLTADKSSNTAYMQLSSLTSDDSAVYFCARSNSYAMDYWGQGTSVTVSS VL: DIVMSQSPSSLAVSVGEKVTVSCKSSQSLLYSGNQKNNLAWYKQKPGQSPKLLIYWASTRESGVPDRFTGSGSGTDFTLTMSSVKAEDLAVYYCQQYYSYPWTFGGGTKLEIK	2.3

# context switch: different binder, same Kd
Inquiry: Data request, read-out Kd, for anti-human FCRL1 mouse monoclonal antibody DK681 (antibody, V domains shown) VH: QVQLQQPGAELVKPGTSVKLSCKASGYTFTRYWMHWVKQRPGQGLEWIGRIDPNSGGSKYNEKFKSKATLTVDKTSSSAYMQLNSLTSEDSAVYYCTRVNSGAMDYWGQGTSVTVSS VL: DIVMSQSPSSLAVSVGEKVTMSCKSSQSLLYSSNQKNYLAWYQQKPGQSPKLLIYWASTRESGVPDRFTGSGSGTDFTLTISSVKAEDLAIYYCQQYSNYPTFGSGTKLEIK
Reply text: 1
